Molecular target: T1, Rb^P S751C (human, UniProt P06400 380-788, S751C)
T1 construct: also called variant 71
T1 sequence (looked up): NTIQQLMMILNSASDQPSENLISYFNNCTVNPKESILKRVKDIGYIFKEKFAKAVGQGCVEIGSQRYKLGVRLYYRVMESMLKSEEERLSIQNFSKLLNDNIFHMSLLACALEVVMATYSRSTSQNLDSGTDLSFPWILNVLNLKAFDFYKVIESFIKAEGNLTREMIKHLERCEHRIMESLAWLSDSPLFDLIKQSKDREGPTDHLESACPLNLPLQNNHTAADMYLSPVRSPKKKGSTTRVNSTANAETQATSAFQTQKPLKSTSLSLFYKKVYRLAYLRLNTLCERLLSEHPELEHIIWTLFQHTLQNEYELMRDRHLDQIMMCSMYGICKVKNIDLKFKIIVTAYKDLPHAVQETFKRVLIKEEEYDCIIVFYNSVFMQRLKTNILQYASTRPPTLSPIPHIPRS
Assay: fluorescence polarisation; 37 °C, after the 25 °C reading ramped over 7 min to 37 °C and 2 min incubation; unlabeled Rb^P against 1.5 nM TMR-E2F1^TD or 7.5 nM TMR-E7^LxCxE; 25 mM Tris pH 8.0, 200 mM NaCl, 1 mM DTT, 0.1% Tween-20; apparent Kd
Settings: both partners purified
No end group written: not given here. TMR = tetramethyl rhodamine dye
assay.metric: pKd
Scale note: pKd = -log10(concentration in M).

Query {TMR}-GEGIRDLFDCDFGDLTPLD (also called E2F^TD; source: synthetic peptide, bought: GenScript) [TMR-E2F1^TD, peptide of the E2F1 transactivation domain] yields pKd of 6.86

Query DLYCYEQLN (also: TMR label, position not given here, source: synthetic peptide, bought: GenScript) [TMR-E7^LxCxE, LxCxE peptide of the E7 oncoprotein from HPV] yields pKd of 7.01
